Reference source: patent US20240025862A1

- Tested on: Triticum aestivum (TRZAS)
- PROCEDURE_SUMMARY: Post-emergence crop plant compatibility, greenhouse pot test
- Type: in vivo
- CONDITION: 1.25 g/ha, vs untreated controls
PROPERTY_LABEL: Post-emergence action against TRZAS (crop plant compatibility) (%)

Exercise: For Triticum aestivum (TRZAS), provide Post-emergence action against TRZAS (crop plant compatibility) of Cn1c(C(F)(F)F)cc(=O)n(-c2cc(Oc3ccccc3OCC(=O)OC3COC3)c(Cl)cc2F)c1=O [I.7-115] please.
Key: 0

Exercise: Form field: Post-emergence action against TRZAS (crop plant compatibility) recorded for Cn1c(C(F)(F)F)cc(=O)n(-c2cc(Oc3ccccc3OCC(=O)OCCOC(F)(F)F)c(Br)cc2F)c1=O [I.8-41] with Triticum aestivum (TRZAS) (enter value)
Key: 0

Exercise: Item COCCOC(=O)COc1cccc(F)c1Oc1cc(-n2c(=O)cc(C(F)(F)F)n(C)c2=O)c(F)cc1Cl [I.19-1] with Triticum aestivum (TRZAS) - Post-emergence action against TRZAS (crop plant compatibility)?
Key: 20

Exercise: Give recorded Post-emergence action against TRZAS (crop plant compatibility) with Triticum aestivum (TRZAS) for the following compound: Cn1c(C(F)(F)F)cc(=O)n(-c2cc(Oc3ccccc3OCC(=O)OCC#N)c(C#N)cc2F)c1=O [I.9-176]
Key: 0

P. Cn1c(C(F)(F)F)cc(=O)n(-c2cc(Oc3ccccc3OCC(=O)OCC#N)c(Br)cc2F)c1=O [I.8-176]
Q. CCOCCOC(=O)C(C)Oc1ccccc1Sc1cc(-n2c(=O)cc(C(F)(F)F)n(C)c2=O)c(F)cc1Cl (racemic) [I.2-2]
R. Cn1c(C(F)(F)F)cc(=O)n(-c2cc(Sc3ccccc3OCC(=O)OCC3CCCO3)c(Cl)cc2F)c1=O (racemic) [I.1-71]
Exercise: Please list the entries, largest Post-emergence action against TRZAS (crop plant compatibility) first. Rank them, then answer with their labels in that order.
Key: Q, R, P
